MEASURED TARGET: T1, soluble ICAM-1 (Bender MedSystems) (UniProt P05362 28-480, limits assumed)
T1 construct: Bought soluble protein coated on the ELISA plate
T1 sequence (P05362 28-480 limits assumed): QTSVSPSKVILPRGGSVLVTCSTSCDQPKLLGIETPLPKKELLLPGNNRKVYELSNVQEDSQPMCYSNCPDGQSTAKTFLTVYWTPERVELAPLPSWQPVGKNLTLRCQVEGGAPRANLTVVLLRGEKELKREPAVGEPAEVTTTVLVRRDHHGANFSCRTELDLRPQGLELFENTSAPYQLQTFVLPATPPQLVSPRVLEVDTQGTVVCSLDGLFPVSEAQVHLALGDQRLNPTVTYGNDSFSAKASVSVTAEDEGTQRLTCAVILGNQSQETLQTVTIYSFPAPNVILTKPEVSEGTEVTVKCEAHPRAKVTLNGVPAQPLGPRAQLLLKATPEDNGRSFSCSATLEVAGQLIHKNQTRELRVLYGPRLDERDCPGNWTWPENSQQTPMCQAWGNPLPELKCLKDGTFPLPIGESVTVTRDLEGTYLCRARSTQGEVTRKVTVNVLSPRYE
EXPERIMENT SUMMARY: ELISA on plate-coated soluble ICAM-1, His-tagged scFv detected with anti-His-HRP
MEASUREMENT NAME: Kd (nM)
# value in nM; strip the unit string

So what does the record say about Kd for HscA (humanized 1A6 scFv HumA) (scFv, also called humanized scFv A; scFV3; not shown: carboxy-terminal His tag of vector pBAD/pIII A) scFv: DIQMTQSPSSLSASVGDRVTITCRASQSISNNLHWYQQKPGKAPKLLIYHASQSISGVPSRFSGSGSGTDFTLTISSLQPEDFATYYCQQSNSWPYTFGQGTKVEIKRGGGGSGGGGSGGGGSGGGGSEVQLVESGGGLVQPGGSLRLSCAASGFNIKDTYIHWVRQAPGKGLEWVARIDPANDNTIYADSVKGRFTISSDDSKNTAYLQMNSLRAEDTAVYYCTDSGYWFAYWGQGTLVTVSS ?
150
